# Test details: Antibacterial activity against […] resistant Moraxella sp.764 clinical isolate assessed as reduction in bacterial growth incubated for 24 hrs by CLSI broth microdilution method
# Format: functional
# Experimental context: Moraxella catarrhalis
The reader will find reported MIC values listed item by item below.
Readout: MIC

1. CC(C)(C)c1cc2c(OCC(=O)NCCC[N+](C)(C)Cc3ccccc3)c(c1)Sc1cc(C(C)(C)C)cc(c1OCC(=O)NCCC[N+](C)(C)Cc1ccccc1)Sc1cc(C(C)(C)C)cc(c1OCC(=O)NCCC[N+](C)(C)Cc1ccccc1)Sc1cc(C(C)(C)C)cc(c1OCC(=O)NCCC[N+](C)(C)Cc1ccccc1)S2.[Cl-].[Cl-].[Cl-].[Cl-]: 64 µg/mL
2. CCCCCCCCCCCCCC(=O)NCCC[N+](C)(C)Cc1ccccc1.[Cl-] [MIRAMISTIN]: 64 µg/mL
3. CCCCCCCCCC[N+](C)(C)CCCNC(=O)COc1c2cc(C(C)(C)C)cc1Sc1cc(C(C)(C)C)cc(c1OCC(=O)NCCC[N+](C)(C)CCCCCCCCCC)Sc1cc(C(C)(C)C)cc(c1OCC(=O)NCCC[N+](C)(C)CCCCCCCCCC)Sc1cc(C(C)(C)C)cc(c1OCC(=O)NCCC[N+](C)(C)CCCCCCCCCC)S2.[Cl-].[Cl-].[Cl-].[Cl-]: > 64 µg/mL
4. CCCCCCCC[N+](C)(C)CCCNC(=O)COc1c2cc(C(C)(C)C)cc1Sc1cc(C(C)(C)C)cc(c1OCC(=O)NCCC[N+](C)(C)CCCCCCCC)Sc1cc(C(C)(C)C)cc(c1OCC(=O)NCCC[N+](C)(C)CCCCCCCC)Sc1cc(C(C)(C)C)cc(c1OCC(=O)NCCC[N+](C)(C)CCCCCCCC)S2.[Cl-].[Cl-].[Cl-].[Cl-]: 16 µg/mL

----------
The reader will find reported MIC values listed item by item below.
# System: Staphylococcus haemolyticus
# Test details: Antibacterial activity against methicillin- resistant Staphylococcus haemolyticus 837 assessed as reduction in bacterial growth incubated for 24 hrs by CLSI broth microdilution method
# Type: functional
Readout: MIC (µg/mL)

1. CC(C)(C)c1cc2c(OCC(=O)NCCC[N+](C)(C)Cc3ccccc3)c(c1)Sc1cc(C(C)(C)C)cc(c1OCC(=O)NCCC[N+](C)(C)Cc1ccccc1)Sc1cc(C(C)(C)C)cc(c1OCC(=O)NCCC[N+](C)(C)Cc1ccccc1)Sc1cc(C(C)(C)C)cc(c1OCC(=O)NCCC[N+](C)(C)Cc1ccccc1)S2.[Cl-].[Cl-].[Cl-].[Cl-]: 64
2. CCCCCCCCCC[N+](C)(C)CCCNC(=O)COc1c2cc(C(C)(C)C)cc1Sc1cc(C(C)(C)C)cc(c1OCC(=O)NCCC[N+](C)(C)CCCCCCCCCC)Sc1cc(C(C)(C)C)cc(c1OCC(=O)NCCC[N+](C)(C)CCCCCCCCCC)Sc1cc(C(C)(C)C)cc(c1OCC(=O)NCCC[N+](C)(C)CCCCCCCCCC)S2.[Cl-].[Cl-].[Cl-].[Cl-]: 32
3. CCCCCCCC[N+](C)(C)CCCNC(=O)COc1c2cc(C(C)(C)C)cc1Sc1cc(C(C)(C)C)cc(c1OCC(=O)NCCC[N+](C)(C)CCCCCCCC)Sc1cc(C(C)(C)C)cc(c1OCC(=O)NCCC[N+](C)(C)CCCCCCCC)Sc1cc(C(C)(C)C)cc(c1OCC(=O)NCCC[N+](C)(C)CCCCCCCC)S2.[Cl-].[Cl-].[Cl-].[Cl-]: 16
4. CCCCCCCCCCCCCC(=O)NCCC[N+](C)(C)Cc1ccccc1.[Cl-] [MIRAMISTIN]: 64
